- condition_description: in 1,4-dioxane, 288.15 K
measured_quantity: solubility (mole fraction)

entry_smiles: COc1cc(Cl)nc(N)n1
reported_measurement: 0.0264

----------
- condition_description: in methanol, 308.15 K

entry_smiles: COc1cc(Cl)nc(N)n1
solubility (mole fraction): 0.00555

----------
- condition_description: in acetonitrile, 308.15 K

entry_smiles: COc1cc(Cl)nc(N)n1
solubility (mole fraction): 0.00633

----------
- condition_description: in isopropanol, 313.15 K

entry_smiles: COc1cc(Cl)nc(N)n1
solubility (mole fraction): 0.00701

----------
- condition_description: in ethyl acetate, 308.15 K

entry_smiles: COc1cc(Cl)nc(N)n1
solubility (mole fraction): 0.023

The values you see were collected from BigSolDB 2.1.
